Data credit: the RNAGym collection of RNA variant scans (doi:10.1093/nar/gkz1192)

B1: CPEB3 Ribozyme (parent)
chain: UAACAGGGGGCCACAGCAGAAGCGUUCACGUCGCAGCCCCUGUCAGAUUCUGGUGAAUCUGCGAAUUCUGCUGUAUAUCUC

Variants of: B1
measurement protocol: self-cleavage, relative activity (ratio to wild type); higher = more cleavage; in vitro, sequencing
self-cleavage vs 0.4: at or above is rule met, below is rule not met.

{"biosequence": "UAACAGGGGGCCACAGCAGAAGCGUUCACGUCGCAACCCCUGUCAGAUUCCGGUGAAUCUGCGAAUUCUGCUGUAUAUCUC [G36A U51C]", "class assignment": "rule not met"}
{"biosequence": "UAACAGGGGGCCACAGCAGAAGCGUUCACGUCGCAGGCCCUGUCAGGUUCUGGUGAAUCUGCGAAUUCUGCUGUAUAUCUC [C37G A47G]", "class assignment": "rule met"}
{"biosequence": "UAACAGGGGGCCACAGCAGAAGCGCUCACGUCGCAGCCCCUGUCAGAUUCUGGUGAAGCUGCGAAUUCUGCUGUAUAUCUC [U25C U58G]", "class assignment": "rule not met"}
{"biosequence": "UAACAGGGGGCCACAGCAGAAGCGUUCACGUCGCAGCCCCUGUCAGAAUCCGGUGAAUCUGCGAAUUCUGCUGUAUAUCUC [U48A U51C]", "class assignment": "rule met"}
{"biosequence": "UAACAGGGGCCCACUGCAGAAGCGUUCACGUCGCAGCCCCUGUCAGAUUCUGGUGAAUCUGCGAAUUCUGCUGUAUAUCUC [G10C A15U]", "class assignment": "rule not met"}
